Could you please report measured melting point for the items listed next?

Input: Entry under review: `Cc1nc2cccc([N+](=O)[O-])c2s1` . Reported melting point?
Output: 120 to 121 °C

Input: Can you check `CCOC(=O)c1cnc(N2CCn3ccnc3C2)nc1NCc1ccc(OC)c(Cl)c1` next?
Output: 179 to 182 °C

Input: Can you check `COC(=O)c1cnc(C(=O)OC)c(SCc2cccc(C(F)(F)F)c2)c1` next?
Output: 102 to 106 °C

Input: Can you check COc1ccc(N2CCN(C)CC2)c2c1CCC(C(=O)Nc1ccc(N3CCOCC3)cc1)C2 (stereo not drawn) next?
Output: 230 to 232 °C

Input: Can you check `O=C(Nc1ccc2ccc(Cl)nc2n1)c1ccc(C(F)(F)F)cc1` next?
Output: 236 °C

Input: Can you check `CC(=O)c1ccc(S(=O)(=O)NCCN(C)C)cc1` next?
Output: 87 to 89 °C

Input: Can you check NC(=O)NCCCCC1CCSS1 (stereo not drawn) next?
Output: 110 to 113 °C

Input: Can you check `O=C(Nc1ccc([N+](=O)[O-])cc1)C(=O)N1CCC(Cc2ccc(F)cc2)CC1` next?
Output: 157 to 159 °C

---

Metric Name: melting point

Input: Entry under review: `C=C(Nc1nc(-c2ccccc2)c(-c2nc3ccccc3c(=O)n2-c2ccc(Cl)cc2)s1)c1ccco1` . Reported melting point?
Output: 270 to 274 °C

Input: Can you check `CCOCc1nc2c(N)nc(C)c(C)c2n1CCCC(=O)N1CCOCC1` next?
Output: 156 to 158 °C

Input: Can you check CCCCCCCCCCCCCCCCCNC(=O)O[C@@H]1CCO[C@H]1COCc1ccccc1 (relative stereo) next?
Output: 54 to 56 °C

---

Could you please report measured melting point for the items listed next?

Input: Entry under review: `O=C(Nc1ccccc1N1CCOCC1)c1cccc2c1C(=O)c1ccccc1-2` . Reported melting point?
Output: 154 to 156 °C

Input: Can you check CC1CSC2=C(O1)c1cc(-c3ccccc3)ccc1C(=O)C2=O (centres undefined) next?
Output: 190 to 192 °C

Input: Can you check `Cc1cccc(-c2nc3cccnn3c2-c2ccnc(N(C(=O)C3CC3)C(=O)C3CC3)c2)c1` next?
Output: 173 to 175 °C

Input: Can you check `O=C(N[C@@H](Cc1ccccc1)[C@H](O)CCl)OCc1ccccc1` next?
Output: 151 to 153 °C

Input: Can you check COc1ccc(C2=NN(CCCOc3ccccc3)C(=O)[C@H]3CCCC[C@@H]23)cc1OC (relative stereo) next?
Output: 78 to 81 °C

Input: Can you check CNC(=S)C1(c2ccccc2)CCCCC1=O (centres undefined) next?
Output: 86 °C

Input: Can you check CS(=O)CC(=O)c1cc(C(C)(C)C)c(O)c(C(C)(C)C)c1 (centres undefined) next?
Output: 144 to 145 °C

Input: Can you check `CSc1nc2c(cc1Cl)N(C(=O)Nc1cccnc1)CC2` next?
Output: 266 to 267 °C

Input: Can you check `O=C(O)c1sc(-c2cccnc2)nc1C(F)(F)F` next?
Output: 209 °C

---

Metric Name: melting point

Input: Entry under review: `O=C1NOCc2ccccc21` . Reported melting point?
Output: 123 to 125 °C

Input: Can you check Cc1nc(NC(=O)c2cnn3c(C(F)(F)F)cc(-c4ccc(C(F)(F)F)cc4)nc23)sc1S(=O)(=O)N1CCC(O)C1 (racemic) next?
Output: 300 °C

Input: Can you check `CN1CCN(c2cccc3c2C[C@H](NC(=O)c2ccc(-n4cccc4)cc2)CC3)CC1` next?
Output: 245 to 247 °C

Input: Can you check O=c1c2c(OCC3CO3)cc(OCC3CO3)cc2oc2ccc3ccccc3c12 (configuration not stated) next?
Output: 198 to 200 °C

Input: Can you check `Cc1ccc(S(=O)(=O)Oc2ccc(S(=O)(=O)c3c(C(C)C)cn4ccccc34)cc2)cc1` next?
Output: 180 to 183 °C

Input: Can you check `CCOC(=O)Cc1cccc(C(=O)c2ccccc2)c1NC(C)=O` next?
Output: 133 to 134 °C

Input: Can you check `Clc1ccc(N2CC=C(COc3ccc(C4=NCCO4)cc3)CC2)nn1` next?
Output: 176 °C

Input: Can you check `Cc1ccc2nc(C)c(CCN3CCN(c4cccc(Cl)c4)CC3)c(=O)n2c1` next?
Output: 127 to 128 °C

Input: Can you check CNC(=O)C(O)C(Oc1ccccc1[N+](=O)[O-])c1ccccc1 (configuration not stated) next?
Output: 162 to 163 °C

Input: Can you check CC(OS(C)(=O)=O)C(C)N1C(=O)c2ccccc2C1=O (configuration not stated) next?
Output: 67 to 73 °C

Input: Can you check CCCN(CCC)C1Cc2cccc3nc(SC)n(c23)C1 (configuration not stated) next?
Output: 49 to 52 °C

Input: Can you check `CS(=O)(=O)c1ccc(C2=C(c3ccc(Cl)cc3)CCC2)cc1` next?
Output: 128 °C

Input: Can you check `CCc1cc(=O)c2c([nH]1)CCCC2` next?
Output: 133 to 137 °C

Input: Can you check `O=C1CCN(Cc2ccc([N+](=O)[O-])cc2)C(=O)C1=C1SC=CS1` next?
Output: 192 to 193 °C

Input: Can you check `FC(F)(F)c1cccc(-c2ccnc3nccn23)c1` next?
Output: 160 to 163 °C

Input: Can you check Cn1cncc1C(N)(c1ccc(Cl)cc1)c1ccc2c(c1)c(-c1cccc(Cl)c1)nc1nnnn12 (configuration not stated) next?
Output: 159 °C

Input: Can you check `CSc1cc2cc(-c3ccccc3)ccc2cc1OS(=O)(=O)C(F)(F)F` next?
Output: 79.4 to 80.3 °C

Input: Can you check `O=C(O)c1nn(CCCCCCl)c2c1CCc1cc(Cl)sc1-2` next?
Output: 205 to 208 °C

Input: Can you check `O=C1CSCN1c1cc(Cl)cc(Cl)c1` next?
Output: 87 to 92 °C

Input: Can you check `O=C1CC(=O)CC(c2cc([N+](=O)[O-])ccc2F)C1` next?
Output: 171 to 173 °C

Input: Can you check `Cc1nc2c(OCc3ccccc3)nccn2c1C` next?
Output: 104 to 110 °C

Input: Can you check `COc1ccccc1OC(=O)C(=O)Oc1ccccc1OC` next?
Output: 123 to 126 °C

Input: Can you check `C=Cc1cc2cccnc2c(-c2cccc([N+](=O)[O-])c2)n1` next?
Output: 145 to 151 °C

Input: Can you check `CCCCC(=O)Nc1ccc(C(F)(F)F)c(-n2nc(CC)n(Cc3ccc(-c4ccccc4S(=O)(=O)NC(C)(C)C)cc3F)c2=O)c1` next?
Output: 243 to 245 °C

Input: Can you check `CC(=O)Nc1ccc(C(=O)c2cc(-c3ccc(Cl)cc3)c(N3CCOCC3)s2)cc1` next?
Output: 125 to 127 °C

Input: Can you check `N#Cc1cc2c3c(cccc3c1N1CCCC1)C(=O)N(O)C2=O` next?
Output: 247 to 248 °C

Input: Can you check `CCOC(=O)CNC1=NS(=O)(=O)c2ccccc21` next?
Output: 166 to 167 °C

Input: Can you check `O=C(NCc1ccccc1)OCc1noc(-c2ccc(CN3CCCCCC3)s2)n1` next?
Output: 129 to 130 °C

Input: Can you check `O=c1c2cc(F)ccc2[nH]c2c([N+](=O)[O-])ccc(Cl)c12` next?
Output: 287 to 291 °C

Input: Can you check `CCOC1=N[C@@H](CSCC)C(=O)N[C@@H]1Cc1ccccc1` next?
Output: 118 °C

Input: Can you check `CC[C@@]12C[C@H](O)[C@](O)(c3ccccc3)C[C@H]1CCc1cc(O)ccc12` next?
Output: 191 to 192 °C

Input: Can you check `N#Cc1cnc2ccc(N)cc2c1Nc1ccc(F)c(Br)c1` next?
Output: 210 to 212 °C

meta.source: a melting point compilation (Tetko et al.; mined from patent text by program, amines drawn as free bases though some values may be those of a salt)
